# Assay System: UniProt:P49840
# Protocol Details: concentration-response blocking of human GSK3A – biochemical, luminescence, cell-free homogeneous, retest, dose response (AID 463203)
# Assay Setup: GSK-3 alpha enzyme, ADP-Glo luminescence, 60 min
Calls of active or inactive are those of the source.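 The calls were made as follows: active = more than half of replicate measurements showing over 20% loss of kinase signal relative to plate controls; inconclusive = some but at most half of replicates over 20% loss; inactive = no replicate over 20% signal loss.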
AC50 by entry:

compound=N#CCCn1cc(C(=O)N2CCCCC2)c(-c2cccc([N+](=O)[O-])c2)n1 result="> 30 µM (inactive)"
compound=Cc1nnc(SCC(=O)N(C(C)C)C(C)C)nc1C result="> 30 µM (inactive)"
compound=CC(=O)Nc1ccc(C2(c3ccc(NC(C)=O)cc3)NC(=O)c3ccccc32)cc1 result="> 30 µM (inactive)"
compound=COc1ccc(/C=N/NC(=O)c2nnn(-c3nonc3N)c2-c2cccs2)cc1OC result="1.41 µM"
compound=Cc1ccc(-c2nnc(N3CCN(C(=O)COc4cccc(C)c4)CC3)c3ccccc23)cc1 result="> 30 µM (inactive)"
compound=CSc1nc(SCCN(C)C)c2c3c(sc2n1)COC(C)(C)C3 result="> 30 µM (inactive)"
compound=O=c1[nH]nnc2sc3c(c12)CCCC3 result="> 30 µM (inactive)"
compound=CCOc1ccc(Nc2nc(N)c3ccccc3n2)cc1 result="31.2 µM"
compound=COc1cc(OC)cc(-c2nnc(SCc3c(F)cccc3Cl)o2)c1 result="> 30 µM (inactive)"
compound=C=CCN=C1NN=C(c2ccc3c(c2)OCCO3)CS1 result="> 30 µM (inactive)"

Shifting focus to the compound that follows.
Requested read-out: AC50. Entry: CC(C(=O)Nc1nccs1)c1ccc([N+](=O)[O-])cc1 (stereo unspecified)
20.5 µM

---

Measured AC50, listed per entry for reference.
# Assay System: Glycogen synthase kinase-3 alpha (Homo sapiens) (UniProt P49840)
# Sequence (P49840 whole entry, looked up): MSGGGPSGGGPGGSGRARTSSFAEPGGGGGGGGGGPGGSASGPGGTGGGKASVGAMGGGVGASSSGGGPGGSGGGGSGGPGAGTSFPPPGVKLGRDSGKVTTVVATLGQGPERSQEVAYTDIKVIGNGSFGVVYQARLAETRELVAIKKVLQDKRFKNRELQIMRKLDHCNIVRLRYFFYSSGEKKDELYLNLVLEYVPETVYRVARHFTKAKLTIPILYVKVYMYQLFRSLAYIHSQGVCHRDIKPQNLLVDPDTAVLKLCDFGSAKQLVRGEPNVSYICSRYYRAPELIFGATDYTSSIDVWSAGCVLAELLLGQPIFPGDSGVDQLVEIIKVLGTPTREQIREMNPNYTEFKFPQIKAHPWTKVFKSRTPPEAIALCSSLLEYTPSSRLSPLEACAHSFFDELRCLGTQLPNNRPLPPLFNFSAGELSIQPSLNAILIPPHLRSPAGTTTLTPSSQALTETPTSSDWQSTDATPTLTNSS
# Protocol Details: concentration-response blocking of human GSK3A – biochemical, luminescence, cell-free homogeneous, retest, dose response (AID 463203)
# Assay Setup: GSK-3 alpha enzyme, ADP-Glo luminescence, 60 min
Activity calls are given as the source filed them.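 How the source made its calls: active means more than half of replicate measurements showing over 20% loss of kinase signal relative to plate controls; inconclusive means some but at most half of replicates over 20% loss; inactive means no replicate over 20% signal loss.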

molecule=CCN1CCN(c2nc(Nc3ccc(C)c(C)c3)nc(N)c2[N+](=O)[O-])CC1 result="> 30 µM (inactive)"
molecule=CC(=O)Nc1c(C)ccc2nsnc12 result="> 30 µM (inactive)"
molecule=O=C(N/N=C/c1ccc(O)c(O)c1)NC12CC3CC(CC(C3)C1)C2 result="> 30 µM (inactive)"
molecule=O=Cc1cn(-c2ccccc2)nc1-c1ccc2c(c1)OCCO2 result="> 30 µM (inactive)"
molecule=CC1(C)Cc2c(sc3c2C2=NCCN2C=N3)CO1 result="> 30 µM (inactive)"

Fill in the blank: the reported AC50 of C=CCn1c(O)c(C=NC2CCN(Cc3ccccc3)CC2)c(=O)[nH]c1=O is ____.
> 30 µM (inactive)

And the next one, O=[N+]([O-])c1cnccc1NC1CCCCC1 ?
> 30 µM (inactive)

Next: C[C@@H]1O[C@@H](O[C@H]2[C@H](O)[C@@H](O)[C@H](Oc3c(-c4ccc(O)c(O)c4)oc4cc(O)cc(O)c4c3=O)O[C@@H]2CO)[C@H](O)[C@H](O)[C@H]1O
> 30 µM (inactive)

Do the same for CC(C)COC(=O)N1CCCC1C(=O)Nc1nccs1 (stereo unspecified) please
> 30 µM (inactive)

Same lookup for C/C(NCCCn1ccnc1)=C(\C#N)C(N)=O , please.
19.2 µM

# repeat for O=C(N/N=C/c1ccc(Cl)c(Cl)c1)c1ccc2nc[nH]c2c1
> 30 µM (inactive)

Proceed to NC(=O)c1cc(Br)cc2c3c([nH]c12)CCCC3
9.98 µM

Now give it for COc1ccc(-c2noc(CSc3nc(N)cc(=O)[nH]3)n2)cc1 too.
> 30 µM (inactive)
